Assay: self-splicing fitness, log relative to wild type (ln ratio); higher = more splicing; Tetrahymena group I intron in knt gene, E. coli kanamycin selection, DiMSum; sequences stand for … in CUCUCU…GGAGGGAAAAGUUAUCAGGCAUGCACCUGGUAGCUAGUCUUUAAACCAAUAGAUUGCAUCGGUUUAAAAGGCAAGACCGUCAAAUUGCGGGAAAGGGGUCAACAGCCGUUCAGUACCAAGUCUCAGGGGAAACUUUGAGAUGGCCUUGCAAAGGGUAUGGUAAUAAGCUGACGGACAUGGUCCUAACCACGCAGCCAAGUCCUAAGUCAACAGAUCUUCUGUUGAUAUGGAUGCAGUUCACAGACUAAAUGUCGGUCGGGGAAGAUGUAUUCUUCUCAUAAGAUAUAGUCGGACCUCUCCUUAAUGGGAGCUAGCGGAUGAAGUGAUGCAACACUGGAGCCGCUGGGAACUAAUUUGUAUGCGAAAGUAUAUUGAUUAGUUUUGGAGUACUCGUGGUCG;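 further: selection with 25 µg/mL kanamycin versus none on LB agar overnight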
Conditions: 37 °C
Assign MET whenever self-splicing fitness (ln) does not fall below -1; assign NOT MET whenever it does.

BIOSEQUENCE | CLASSIFICATION
UCAAAGCAAUAUUACGUCGA | MET
CUUCAGCAAUAUUACGGUGA | NOT MET
AACUAGCAAUAUUACGAAAG | NOT MET
GAACAGCAAUAUUACGCACU | MET
GAUAAGCAAUAUUACGCAAG | NOT MET
CUGAAGCAAUAUUACGCAAU | NOT MET
GUGUAGCAAUAUUACGCUUA | MET
GUUCAGCAAUAUUACGUGUU | MET
CAGAAGCAAUAUUACGAGGA | NOT MET
CACUAGCAAUAUUACGCUGU | NOT MET
GGGAAGCAAUAUUACGAGUC | NOT MET
GCGGAGCAAUAUUACGCUUA | MET
CUUGAGCAAUAUUACGGUGC | NOT MET
AUAUAGCAAUAUUACGGCCC | MET
ACAUAGCAAUAUUACGACAU | MET
ACCAAGCAAUAUUACGCCAU | NOT MET

* * *

Assay: self-splicing fitness, log relative to wild type (ln ratio); higher = more splicing; Tetrahymena group I intron in knt gene, E. coli kanamycin selection, DiMSum; sequences stand for … in CUCUCU…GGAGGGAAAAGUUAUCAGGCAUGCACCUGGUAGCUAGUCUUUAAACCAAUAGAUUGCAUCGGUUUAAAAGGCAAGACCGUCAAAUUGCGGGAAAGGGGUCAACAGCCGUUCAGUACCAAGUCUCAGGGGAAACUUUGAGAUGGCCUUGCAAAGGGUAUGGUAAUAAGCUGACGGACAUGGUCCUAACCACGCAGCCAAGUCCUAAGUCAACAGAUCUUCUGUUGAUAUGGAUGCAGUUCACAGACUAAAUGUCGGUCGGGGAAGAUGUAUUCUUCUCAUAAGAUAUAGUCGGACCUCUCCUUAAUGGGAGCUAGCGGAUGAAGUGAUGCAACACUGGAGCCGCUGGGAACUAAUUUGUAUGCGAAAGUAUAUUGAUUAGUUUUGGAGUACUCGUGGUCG
Conditions: 37 °C

BIOSEQUENCE | self-splicing fitness (ln)
CGUAAGCAAUAUUACGGAGG | -1.57
UACUAGCAAUAUUACGUCUG | -0.845
UAACAGCAAUAUUACGCCCC | -0.834
UUGAAGCAAUAUUACGAAGU | -1.69
UUAGAGCAAUAUUACGUGCC | -1.58
GGACAGCAAUAUUACGGUCG | -0.39
ACAAAGCAAUAUUACGACAA | -0.443
UAAUAGCAAUAUUACGCACC | -0.918
CUACAGCAAUAUUACGGACG | 0.601
ACUUAGCAAUAUUACGCUCC | 0.041
GAGUAGCAAUAUUACGUCGC | -1.42
GAUGAGCAAUAUUACGUAUU | -3.78
CUCUAGCAAUAUUACGGCAU | -3.62
UGAUAGCAAUAUUACGGGAG | -2.19
CCUCAGCAAUAUUACGUUUU | -3.03
ACCAAGCAAUAUUACGUUUU | -2.29
